- Tested on: Staphylococcus epidermidis
- assay_details: Antibacterial activity against erythromycin-resistant Staphylococcus epidermidis 19-11 assessed as inhibition of visible bacterial growth incubated for 18 hrs by broth microdilution method
- Type: functional
readout_kind: MIC

>  <molecular_string>
CC[C@H]1OC(=O)[C@@](C)(F)C(=O)[C@H](C)[C@@H](O[C@@H]2O[C@H](C)C[C@H](N(C)C)[C@H]2O)[C@](C)(OC)C[C@@H](C)C(=O)[C@H](C)[C@H]2N(CCCOC(=O)Nc3cccc4ccccc34)C(=O)O[C@]12C

>  <MIC>
< 0.03 µg/mL

$$$$
>  <molecular_string>
CC[C@H]1OC(=O)[C@@](C)(F)C(=O)[C@H](C)[C@@H](O[C@@H]2O[C@H](C)C[C@H](N(C)C)[C@H]2O)[C@](C)(OC)C[C@@H](C)C(=O)[C@H](C)[C@H]2N(CCCOC(=O)Nc3ccc4sccc4c3)C(=O)O[C@]12C

>  <MIC>
< 0.03 µg/mL

$$$$
>  <molecular_string>
CC[C@H]1OC(=O)[C@@](C)(F)C(=O)[C@H](C)[C@@H](O[C@@H]2O[C@H](C)C[C@H](N(C)C)[C@H]2O)[C@](C)(OC)C[C@@H](C)C(=O)[C@H](C)[C@H]2N(CCCOC(=O)Nc3cccc(C)c3)C(=O)O[C@]12C

>  <MIC>
< 0.03 µg/mL

$$$$
>  <molecular_string>
CC[C@H]1OC(=O)[C@@](C)(F)C(=O)[C@H](C)[C@@H](O[C@@H]2O[C@H](C)C[C@H](N(C)C)[C@H]2O)[C@](C)(OC)C[C@@H](C)C(=O)[C@H](C)[C@H]2N(CCCOC(=O)Nc3cccc(F)c3C)C(=O)O[C@]12C

>  <MIC>
< 0.03 µg/mL

$$$$

As a next step, examine the molecule that follows.
For record CC[C@H]1OC(=O)[C@@](C)(F)C(=O)[C@H](C)[C@@H](O[C@@H]2O[C@H](C)C[C@H](N(C)C)[C@H]2O)[C@](C)(OC)C[C@@H](C)C(=O)[C@H](C)[C@H]2N(CCCOC(=O)Nc3ccc(F)cc3)C(=O)O[C@]12C the listed MIC is < 0.03 µg/mL

----------
- Test system: Staphylococcus epidermidis
- assay_details: Antibacterial activity against erythromycin-resistant Staphylococcus epidermidis 19-11 assessed as inhibition of visible bacterial growth incubated for 18 hrs by broth microdilution method
- Assay type: functional
readout_kind: MIC (µg/mL)
Express it in µg/mL; write the number only.

For record CC[C@H]1OC(=O)[C@@](C)(F)C(=O)[C@H](C)[C@@H](O[C@@H]2O[C@H](C)C[C@H](N(C)C)[C@H]2O)[C@](C)(OC)C[C@@H](C)C(=O)[C@H](C)[C@H]2N(CCCOC(=O)Nc3c(C)noc3C)C(=O)O[C@]12C the listed MIC is 0.125

For record CCc1ccc(NC(=O)OCCCN2C(=O)O[C@]3(C)[C@@H](CC)OC(=O)[C@@](C)(F)C(=O)[C@H](C)[C@@H](O[C@@H]4O[C@H](C)C[C@H](N(C)C)[C@H]4O)[C@](C)(OC)C[C@@H](C)C(=O)[C@H](C)[C@@H]23)cc1 the listed MIC is 0.03

For record CC[C@H]1OC(=O)[C@H](C)[C@@H](O[C@H]2C[C@@](C)(OC)[C@@H](O)[C@H](C)O2)[C@H](C)[C@@H](O[C@@H]2O[C@H](C)C[C@H](N(C)C)[C@H]2O)[C@](C)(O)C[C@@H](C)CN(C)[C@H](C)[C@@H](O)[C@]1(C)O the listed MIC is 0.25
